I'd appreciate it if you could supply MIC AG037 E. coli APH(3′)-III values for the items below.
# Tested on: E coli carrying specific resistance determinants
# ASSAY METHOD TEXT: MIC by broth microdilution, E coli carrying specific resistance determinants
# Type: cell-based
# MEASUREMENT PARAMETERS: engineered strain AG037 APH(3′)-III; Table 2 (Example 4)

Documented MIC AG037 E. coli APH(3′)-III of NC[C@@H]1O[C@H](O[C@H]2[C@@H](O)[C@H](O[C@@H]3[C@@H](O)[C@H](N)C[C@H](N)[C@H]3O[C@H]3O[C@H](CO)[C@@H](O)C[C@H]3N)O[C@@H]2CO)[C@H](N)[C@@H](O)[C@@H]1O [Lividomycin B, lividomycin B, reference compound] : >128 µg/mL

CCC[C@@H]1C(CO)O[C@H](O[C@@H]2C(N)C[C@@H](N)C(O)[C@H]2O[C@@H]2O[C@H](CO)[C@H](O[C@H]3C[C@@H](CN)[C@@H](O)C(O)C3N)C2O)[C@@H](N)C1O (stereo partly drawn) has a reported MIC AG037 E. coli APH(3′)-III of >64 µg/mL

The measured MIC AG037 E. coli APH(3′)-III associated with NC[C@@H]1O[C@H](O[C@H]2[C@@H](O)[C@H](O[C@@H]3[C@@H](O)[C@H](N)C[C@H](N)[C@H]3O[C@H]3O[C@H](CN)[C@@H](O)[C@H](O)[C@H]3N)O[C@@H]2CO)[C@H](N)[C@@H](O)[C@@H]1O [neomycin, Neomycin B, reference compound] reads >64 µg/mL
